- Test system: 883617-216-R-J1-PDC complex spheroid viability
- assayComment: Anticancer human tumor 883617-216-R-J1-PDC patient-derived bladder carcinoma cell line growth inhibition [POLQ]; active means viability on the fitted dose curve at most 10% of control; inactive means the rest
- cond: second compound 10 µM; first compound 10 µM
Your reply should match one of these outcome classes. yes (1) = active, no (0) = inactive

[
  {
    "molecule": "COc1ccc([C@@H](O)c2cc(-c3ncnc4cc(N5CCOCC5)ccc34)c(F)cc2Cl)nn1 + Nc1ccc(C#CCN(C(=O)Cc2ncc(C(F)(F)F)cc2C(F)(F)F)c2ccc(F)cc2)nn1",
    "className": "no (0)"
  }
]

Req: Outcome logged for CC1COCCN1c1cc(C2(O)CC3CCC(C2)O3)c2cnn(-c3ccn[nH]3)c2n1 (stereo not given) + COC1C(OC(N)=O)C(O)C(Oc2ccc3c(O)c(NC(=O)c4ccc(O)c(CC=C(C)C)c4)c(=O)oc3c2C)OC1(C)C in this assay:
Resp: no (0)

Req: I would be grateful if you could indicate the recorded call for O=C(Nc1ccc(O)c(NS(=O)(=O)c2ccc(F)cc2)c1)c1ccc(-c2ccccc2)cc1 + Nc1ccc(C#CCN(C(=O)Cc2ncc(C(F)(F)F)cc2C(F)(F)F)c2ccc(F)cc2)nn1 .
Resp: no (0)

Req: Query: recorded result category for CC1COCCN1c1cc(C2(S(C)(=N)=O)CC2)nc(-c2ccnc3[nH]ccc23)n1 (stereo not given) + Nc1ccc(C#CCN(C(=O)Cc2ncc(C(F)(F)F)cc2C(F)(F)F)c2ccc(F)cc2)nn1 in this test
Resp: no (0)

Req: Could you kindly confirm the outcome this assay logged for COc1cccc2c1C(=O)c1c(O)c3c(c(O)c1C2=O)CC(O)(C(=O)CO)CC3OC1CC(N)C(O)C(C)O1 (stereo not given) + Nc1ccc(C#CCN(C(=O)Cc2ncc(C(F)(F)F)cc2C(F)(F)F)c2ccc(F)cc2)nn1 ?
Resp: yes (1)

----------
- Test system: 883617-216-R-J1-PDC complex spheroid viability
- assayComment: Anticancer human tumor 883617-216-R-J1-PDC cell line growth inhibition [POLQ];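 further: spheroids exposed to compounds for seven days before readout; 100% = DMSO vehicle control viability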
- cond: second compound 0.1 µM; first compound 0.0316 µM; active compounds read low
- Description: Multicellular complex tumor spheroid response to Polymerase (POL) inhibitors (novobiocin, ART-558, RP6685) in combination with a variety of drugs and investigational agents in selected tumor cell lines The POL inhibitors (novobiocin, ART-558, and RP6685) were evaluated both individually and in combination with standard of care and investigational anticancer small molecules within a complex spheroid model of solid tumors. . […]
measure: viability, T/C (%)
Return type: number; implicit unit %.

Reference set (4 entries):
[
  {
    "compound": "COc1cccc2c1C(=O)c1c(O)c3c(c(O)c1C2=O)CC(O)(C(=O)CO)CC3OC1CC(N)C(O)C(C)O1 (stereo unspecified) + COC1C(OC(N)=O)C(O)C(Oc2ccc3c(O)c(NC(=O)c4ccc(O)c(CC=C(C)C)c4)c(=O)oc3c2C)OC1(C)C",
    "viability, T/C / %": 67.3
  },
  {
    "compound": "Nc1ccn(C2OC(CO)C(O)C2(F)F)c(=O)n1 (stereo unspecified) + Cc1cccc(N(C)C(=O)C2C(O)CCN2c2nc(C)cc(C(F)(F)F)c2C#N)c1",
    "viability, T/C / %": 28
  },
  {
    "compound": "O=c1[nH]cc(F)c(=O)[nH]1 + Cc1cccc(N(C)C(=O)C2C(O)CCN2c2nc(C)cc(C(F)(F)F)c2C#N)c1",
    "viability, T/C / %": 93.3
  },
  {
    "compound": "CCc1cc2c(N3CCc4c(cc(Cn5ccnc5)cc4-c4cn(C)nc4C(F)(F)F)C3=O)cc(C)nc2c(OC)n1 + COC1C(OC(N)=O)C(O)C(Oc2ccc3c(O)c(NC(=O)c4ccc(O)c(CC=C(C)C)c4)c(=O)oc3c2C)OC1(C)C",
    "viability, T/C / %": 98.4
  }
]

Req: What measured viability, T/C goes with COc1cc2cc(C(=O)CCC(=O)O)sc2cc1OC + Cc1cccc(N(C)C(=O)C2C(O)CCN2c2nc(C)cc(C(F)(F)F)c2C#N)c1 ?
Resp: 98.3

Req: Consider the compound C=CC(=O)N1CCN(c2nc(=O)n(-c3c(C)ccnc3C(C)C)c3nc(-c4c(O)cccc4F)c(F)cc23)C(C)C1 (stereo unspecified) + Nc1ccc(C#CCN(C(=O)Cc2ncc(C(F)(F)F)cc2C(F)(F)F)c2ccc(F)cc2)nn1 and give its measured viability, T/C.
Resp: 63.3

----------
This section presents molecules with their documented viability, T/C values.
- System: 883617-216-R-J1-PDC complex spheroid viability
- assayComment: Anticancer human tumor 883617-216-R-J1-PDC cell line growth inhibition [POLQ];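 further: spheroids exposed to compounds for seven days before readout; 100% = DMSO vehicle control viability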
- cond: second compound 0.0316 µM; first compound 0.01 µM; active compounds read low
Enter your answer as a number in %; do not include the unit.

Answered examples (2):
[
  {
    "molecule": "Cn1ncnc1[C@H]1c2n[nH]c(=O)c3cc(F)cc(c23)N[C@@H]1c1ccc(F)cc1 + Cc1cccc(N(C)C(=O)C2C(O)CCN2c2nc(C)cc(C(F)(F)F)c2C#N)c1",
    "scaleUnit": "%",
    "viability, T/C": 78
  },
  {
    "molecule": "C=CCn1c(=O)c2cnc(Nc3ccc(N4CCN(C)CC4)cc3)nc2n1-c1cccc(C(C)(C)O)n1 + Nc1ccc(C#CCN(C(=O)Cc2ncc(C(F)(F)F)cc2C(F)(F)F)c2ccc(F)cc2)nn1",
    "scaleUnit": "%",
    "viability, T/C": 98.9
  }
]

Here is the next item to consider.
Req: Lab note: need viability, T/C with 883617-216-R-J1-PDC complex spheroid viability for entry Cn1ncnc1[C@H]1c2n[nH]c(=O)c3cc(F)cc(c23)N[C@@H]1c1ccc(F)cc1 + COC1C(OC(N)=O)C(O)C(Oc2ccc3c(O)c(NC(=O)c4ccc(O)c(CC=C(C)C)c4)c(=O)oc3c2C)OC1(C)C , please look it up.
Resp: 94.9

----------
- System: 883617-216-R-J1-PDC complex spheroid viability
- assayComment: Anticancer human tumor 883617-216-R-J1-PDC cell line growth inhibition [POLQ];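 further: spheroids exposed to compounds for seven days before readout; 100% = DMSO vehicle control viability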
- cond: second compound 0.316 µM; first compound 10 µM; active compounds read low
measure: viability, T/C (%)
Form entry: value (%) — number only.

// below: answered compounds
[
  {
    "compound": "CC1COCCN1c1cc(-c2ccnn2C)c2ccnc(-c3ccn[nH]3)c2n1 (stereo not given) + Nc1ccc(C#CCN(C(=O)Cc2ncc(C(F)(F)F)cc2C(F)(F)F)c2ccc(F)cc2)nn1",
    "scaleUnit": "%",
    "value": 26
  },
  {
    "compound": "COc1cc(C2c3cc4c(cc3C(OC3OC5COC(C)OC5C(O)C3O)C3COC(=O)C23)OCO4)cc(OC)c1O (stereo not given) + COC1C(OC(N)=O)C(O)C(Oc2ccc3c(O)c(NC(=O)c4ccc(O)c(CC=C(C)C)c4)c(=O)oc3c2C)OC1(C)C",
    "scaleUnit": "%",
    "value": 51
  },
  {
    "compound": "CCCS(=O)(=O)Nc1ccc(F)c(C(=O)c2c[nH]c3ncc(-c4ccc(Cl)cc4)cc23)c1F + Cc1cccc(N(C)C(=O)C2C(O)CCN2c2nc(C)cc(C(F)(F)F)c2C#N)c1",
    "scaleUnit": "%",
    "value": 64.3
  },
  {
    "compound": "CC1COCCN1c1cc(C2(S(C)(=N)=O)CC2)nc(-c2ccnc3[nH]ccc23)n1 (stereo not given) + COC1C(OC(N)=O)C(O)C(Oc2ccc3c(O)c(NC(=O)c4ccc(O)c(CC=C(C)C)c4)c(=O)oc3c2C)OC1(C)C",
    "scaleUnit": "%",
    "value": 38.7
  }
]

Now, please, on to the next compound.
Req: # query: viability, T/C of entry CNCc1ccc(-c2[nH]c3cc(F)cc4c3c2CCNC4=O)cc1 + Cc1cccc(N(C)C(=O)C2C(O)CCN2c2nc(C)cc(C(F)(F)F)c2C#N)c1
Resp: 75.2

----------
- System: 883617-216-R-J1-PDC complex spheroid viability
- assayComment: Anticancer human tumor 883617-216-R-J1-PDC cell line growth inhibition [POLQ];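 further: spheroids exposed to compounds for seven days before readout; 100% = DMSO vehicle control viability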
- cond: second compound 10 µM; first compound 10 µM; active compounds read low
# viability, T/C values compiled below
Answer in %, number only, no unit symbol.

Would you please look over these solved cases?
[
  {
    "compound": "CC1COCCN1c1cc(-c2ccnn2C)c2ccnc(-c3ccn[nH]3)c2n1 (stereo not drawn) + Cc1cccc(N(C)C(=O)C2C(O)CCN2c2nc(C)cc(C(F)(F)F)c2C#N)c1",
    "viability, T/C (%)": 28.2
  },
  {
    "compound": "CC1COCCN1c1cc(C2(S(C)(=N)=O)CC2)nc(-c2ccnc3[nH]ccc23)n1 (stereo not drawn) + COC1C(OC(N)=O)C(O)C(Oc2ccc3c(O)c(NC(=O)c4ccc(O)c(CC=C(C)C)c4)c(=O)oc3c2C)OC1(C)C",
    "viability, T/C (%)": 40.5
  }
]

Next:
Req: Give the measured viability, T/C of C#Cc1c(F)ccc2cc(O)cc(-c3ncc4c(N5CC6CCC(C5)N6)nc(OCC56CCCN5CC(F)C6)nc4c3F)c12 (stereo not drawn) + Cc1cccc(N(C)C(=O)C2C(O)CCN2c2nc(C)cc(C(F)(F)F)c2C#N)c1 .
Resp: 76.2

Origin of the recorded values: PubChem BioAssay AID1963833
